experiment: Tolerability in Sprague-Dawley rats, body and organ weights (Example 21); format: in vivo; conditions: male Sprague-Dawley rats, 50 mg/kg s.c. weekly for 6 weeks (7 doses), terminal, prior to necropsy
Strand notation (5' to 3'): a small letter for the sugar, then the base; units joined by * are phosphorothioate-linked, units joined directly phosphodiester-linked; [ ] holds rarer units or linkages, { } end groups; capitals alone tell only the bases. e = 2'-O-(2-methoxyethyl) (MOE); k = constrained ethyl (cEt); [5mC] = 5-methylcytosine; d = 2'-deoxy (DNA); m = 2'-O-methyl
MEASURED ATTRIBUTE: body weight (g)
Express it in g; write the number only.

Answered examples (2):
1198312 (kG*k[5mC]*kA*d[5mC]*dT*dT*dT*dT*dA*d[5mC]*dA*dT*kT*eA*kG*eG) [compound 1198312]
365
1200857 (kA*kG*kT*dG*dT*mA*dT*dG*dT*d[5mC]*dA*dG*dA*kA*kG*kA; antisense) [compound 1200857]
307

Reported body weight of 1198440 (AAGTGTATGTCAGAAG; cEt, 2'-MOE, 5-methylcytosine, phosphorothioate modifications, further chemistry not given here) [compound 1198440] : 373

Reported body weight of 1198612 (kA*kA*kG*dT*dG*dT*dA*dT*dG*dT*d[5mC]*dA*kG*kA*kA*eG) [compound 1198612] : 345
